Tested on: K-562 leukemia
Assay: NCI-60 one-dose screen, 48 h (100 = growth as untreated, 0 = no growth, -100 = all killed)
Settings: 10 µM unless noted
Description: Cells are grown in 96 well plates and exposed to the test compound for 48 hours. Compounds are tested at a single concentration, which is 10^-5 M for most compounds. The reported endpoint is percent growth (GI% or GIPRCNT), where numbers from 0 - 100% represent growth inhibition, and numbers from -100% - 0 represent cell death. For example, a value of 40 represents 60% growth inhibition. A value of 0 means no net growth occurred over the course of the experiment. […]
This is part of a sample that, as a whole, favours compounds with a hit. Of some 83,000 tested, about 20% had one in any assay.
Could you please mark T for values of growth below 10% and F for values at or above it?

Study these solved cases before continuing.
C=C[C@]1(C)C=C2CC[C@@H]3C(C)(C)C(=O)CC[C@@]3(C)[C@@H]2CC1: F
O=C1c2cc3c(cc2-c2c1c1ccc(Cl)cc1c(=O)n2CCCn1ccnc1)OCO3: T
COc1ccc(Oc2nc(Nc3ccc(N4CCOCC4)cc3)ncc2NC(=O)c2cccc(C(F)(F)F)c2)cc1: F
COc1ccc(-c2ccc(-c3ccc(C(=N)N)cn3)s2)cc1Cl: T
CN1CCN(Cc2ccc(NC(=O)c3cccc(C#Cc4c(N)ncc5ccc(F)cc45)c3)cc2C(F)(F)F)CC1: T
N#C/C(=C\c1ccc(Br)cc1)n1nnc2c(F)cccc21: F
CC1=C2[C@@H](CC1)[C@]1(C)O[C@@](C3CC3)(C[C@H]1OC(=O)CO)[C@H]2OC(=O)/C=C/c1ccccc1: F
Clc1nccc2c(-c3csc(-c4c[nH]c5ccc(Br)cc45)n3)c[nH]c12: T
Cc1oc2c(Cc3ccc(NC(=O)c4ccc(Cl)cc4)cc3)ncnc2c1C(=O)NO: F
COc1c(O)c(O)cc2c3c(oc12)CC(c1ccc2c(c1)OCO2)CC3=O (configuration not stated): F

(Q) State whether 10% exceeds growth recorded for `COc1ccc(-c2ccccc2)cc1-c1c(Nc2cc(Cl)cc(Cl)c2O)c(=O)c1=O` .
(A) F

(Q) Quick check: does `COc1ccc2c(c1)oc1c(C)c3c(c(C)c12)C(=O)N(Nc1ccccc1)C3=O` have growth under 10%?
(A) F

---

System: MALME-3M melanoma
Assay: NCI-60 one-dose screen, 48 h (100 = growth as untreated, 0 = no growth, -100 = all killed)
Conditions: 10 µM unless noted
Compounds without any hit were thinned out: in the full panel of roughly 83,000, 20% have a hit.
Please use TRUE whenever growth is not below 90%, and FALSE whenever it is.

O=C1CCCCN1CCCCC#Cc1cccc(C#Cc2cccnc2)c1: TRUE

Now let's try a different one.
(Q) Answer whether growth of CC1=CC=C(NC(=O)/C=C/c2ccccc2)CC1Nc1nccc(-c2cccnc2)n1 (stereo unspecified) is greater than or equal to 90%.
(A) FALSE

---

Tested on: CCRF-CEM leukemia
Experiment: NCI-60 one-dose screen, 48 h
Settings: 10 µM unless noted
The panel holds about 83,000 compounds, 20% with a hit somewhere; the sample as a whole holds those more often. Active and inactive are the calls of the source. How the source made its calls: active means growth percent below 10; inactive means the rest.
Respond only with the outcome that fits, drawn from active, inactive

Would you please look over these solved cases?
COc1ccc(C2=C(CN)C(O)NC(=NCC(=O)c3ccc4ccccc4c3)N2)cc1 (configuration not stated): inactive
CCOC(=O)c1nnn(Cc2cc(=O)oc3c2ccc2ccccc23)c1C: inactive
N#CC1=C(N)Oc2c(sc3c(Br)cccc23)C1c1ccccn1 (configuration not stated): inactive

(Q) What was the test verdict on C=C(CNCCO)[C@@H]1CC[C@]2(CO)CC[C@]3(C)[C@H](CC[C@@H]4[C@@]5(C)CCC(NCCc6ccc(O)cc6)C(C)(C)[C@@H]5CC[C@]43C)[C@@H]12 (some centres not stated) ?
(A) active

(Q) Name the outcome recorded for `CCN(CC)CC#CCOC(=O)[C@]1(C)CCC[C@]2(C)c3ccc(C(C)C)cc3CC[C@@H]12` in the assay.
(A) active

(Q) Record request — test call for `O=C([C@H]1C[C@H]1c1ccc(S(F)(F)(F)(F)F)cc1)N1CCN(c2cc(Cl)ccc2C(F)(F)F)CC1`
(A) inactive

(Q) What did this assay record as the result for `CCOc1ccc(C(=O)Cc2ccccc2)cc1` ?
(A) inactive

(Q) // outcome(item) with item = `COc1cc(Cl)cc(-c2nn(C(=O)NS(=O)(=O)c3ccc(Cl)cc3)cc2-c2ccncc2)c1`
(A) inactive
